# merged literature set: pIC50 with Serine/threonine-protein kinase pim-2 (Homo sapiens)
Please report pIC50 as the negative decimal logarithm of the molar concentration, giving only the number.

Asked: Enter measured pIC50, system Serine/threonine-protein kinase pim-2 (Homo sapiens), for the molecule shown: CN1CCN(Cc2ccc(-c3c(-c4cccc(OC(F)(F)F)c4)cc4n3[C@@H](CCCl)CNC4=O)cc2)CC1
Given back: 7.00

Asked: Enter measured pIC50, system Serine/threonine-protein kinase pim-2 (Homo sapiens), for the molecule shown: N#CC1(c2cc(F)c(-c3nc(C(=O)Nc4cnccc4[C@@H]4CCC[C@H](N)C4)ccc3F)c(F)c2)CCOCC1
Given back: 7.53

Asked: Enter measured pIC50, system Serine/threonine-protein kinase pim-2 (Homo sapiens), for the molecule shown: CS(=O)(=O)c1cccc(-c2ccc(N)c(-c3cc4c(N5CCC[C@H](N)C5)ccnc4cn3)n2)c1
Given back: 6.55

Asked: Enter measured pIC50, system Serine/threonine-protein kinase pim-2 (Homo sapiens), for the molecule shown: C[C@H]1CN(c2ccncc2NC(=O)c2ccc(F)c(-c3c(F)cc(CCO)cc3F)n2)C[C@@H](N)[C@@H]1O
Given back: 8.96

Asked: Enter measured pIC50, system Serine/threonine-protein kinase pim-2 (Homo sapiens), for the molecule shown: COC(C)(C)c1cc(F)c(-c2nc(C(=O)Nc3cnccc3N3C[C@@H](N)[C@H](O)[C@@H](C)C3)ccc2F)c(F)c1
Given back: 8.87

Asked: Enter measured pIC50, system Serine/threonine-protein kinase pim-2 (Homo sapiens), for the molecule shown: CC(C)[C@@H]1C[C@H](N)C[C@H](c2ccncc2NC(=O)c2ccc(F)c(-c3c(F)cc(OC4CCOCC4)cc3F)n2)C1
Given back: 9.02

Asked: Enter measured pIC50, system Serine/threonine-protein kinase pim-2 (Homo sapiens), for the molecule shown: COCCc1cc(F)c(-c2nc(C(=O)Nc3cnccc3[C@H]3C[C@@H](N)[C@H](O)[C@@H](C)C3)ccc2F)c(F)c1
Given back: 8.53

Asked: Enter measured pIC50, system Serine/threonine-protein kinase pim-2 (Homo sapiens), for the molecule shown: C[C@@H]1C[C@H](O)C[C@H](c2ccncc2NC(=O)c2csc(-c3c(F)cccc3F)n2)C1
Given back: 7.05

Asked: Enter measured pIC50, system Serine/threonine-protein kinase pim-2 (Homo sapiens), for the molecule shown: C[C@@H]1C[C@H](N)C[C@H](c2ccncc2NC(=O)c2ccc(F)c(-c3c(F)cc(COC4CCOCC4)cc3F)n2)C1
Given back: 8.53

Asked: Enter measured pIC50, system Serine/threonine-protein kinase pim-2 (Homo sapiens), for the molecule shown: Nc1ccc(-c2cc(C(=O)Nc3ccccc3)ccc2F)nc1-c1cc2c(N3CCC[C@H](N)C3)ccnc2cn1
Given back: 7.01

Asked: Enter measured pIC50, system Serine/threonine-protein kinase pim-2 (Homo sapiens), for the molecule shown: C[C@@H]1C[C@H](N)C[C@H](c2ccncc2NC(=O)c2csc(-c3c(F)ccc(F)c3F)n2)C1 (stereo in doubt)
Given back: 7.82

Asked: Enter measured pIC50, system Serine/threonine-protein kinase pim-2 (Homo sapiens), for the molecule shown: C[C@H]1C[C@@H](c2ccncc2NC(=O)c2cccc(-c3c(F)cc(N4CCOCC4)cc3F)n2)C[C@@H](N)[C@@H]1O
Given back: 8.64

Asked: Enter measured pIC50, system Serine/threonine-protein kinase pim-2 (Homo sapiens), for the molecule shown: NC1CC(CO)CN(c2ccncc2NC(=O)c2csc(-c3c(F)cccc3F)n2)C1 (stereo not drawn)
Given back: 7.24
